system: LB771-HNC (Head and Neck Carcinoma); test: Bliss excess, mean over the matrix (fraction); higher = more synergy
Reported Bliss excess values are given for each entry in this list.
Answer using only a numeral; do not append any unit.

Previously resolved entries follow.
{"columns": ["molecule", "experimental-result"],
 "data": [
  ["CCN(CCO)CCCOc1ccc2c(Nc3cc(CC(=O)Nc4cccc(F)c4)[nH]n3)ncnc2c1 [AZD2811] + O=C(c1cc(Cc2n[nH]c(=O)c3ccccc23)ccc1F)N1CCN(C(=O)C2CC2)CC1 [Olaparib] (first compound max 1 µM, 7x7, partner max 10 µM)", 0.0255],
  ["CN(CCO)CC[C@H](CSc1ccccc1)Nc1ccc(S(=O)(=O)NC(=O)c2ccc(N3CCC([C@@H](O)c4ccccc4-c4ccc(Cl)cc4)CC3)cc2)cc1S(=O)(=O)C(F)(F)F [AZD4320] + CCN(CCO)CCCOc1ccc2c(Nc3cc(CC(=O)Nc4cccc(F)c4)[nH]n3)ncnc2c1 [AZD2811] (first compound max 1 µM, 7x7, partner max 1 µM)", -0.0227]
]}

Recall the reported Bliss excess of COc1nnc2ccc(N3CCC(c4ccc(OCCN5CCN(C)C(=O)[C@H]5C)cc4)CC3)nn12 [AZD5153] + CC1(C)CCC(CN2CCN(c3ccc(C(=O)NS(=O)(=O)c4ccc(NCC5CCOCC5)c([N+](=O)[O-])c4)c(Oc4cnc5[nH]ccc5c4)c3)CC2)=C(c2ccc(Cl)cc2)C1 [Venetoclax] (first compound max 1 µM, 7x7, partner max 1 µM) when tested on LB771-HNC (Head and Neck Carcinoma). -0.0704

----------
tested on: PCI-30 (Head and Neck Carcinoma); experiment: combination Emax (second highest fraction inhibited in the dose matrix, 72 h); higher = more inhibition; extreme values may be limits of the assay
Reported combination Emax values are given for each entry in this list.
Answer using only a numeral; do not append any unit.

{"columns": ["compound", "assayed-target", "experimental-result"],
 "data": [
  ["CC(=O)c1c(C)c2cnc(Nc3ccc(N4CCNCC4)cn3)nc2n(C2CCCC2)c1=O [Palbociclib] + CC1(C)CCC(CN2CCN(c3ccc(C(=O)NS(=O)(=O)c4ccc(NCC5CCOCC5)c([N+](=O)[O-])c4)c(Oc4cnc5[nH]ccc5c4)c3)CC2)=C(c2ccc(Cl)cc2)C1 [Venetoclax] (first compound max 10 µM, 7x7, partner max 1 µM)", "PCI-30 (Head and Neck Carcinoma)", 0.223]
]}

Dear colleague, please send me the reported combination Emax for COc1cc2c(cc1OCCCCCOc1cc3c(cc1OC)C(=O)N1C=C(C)C[C@H]1C=N3)N=C[C@@H]1CC(C)=CN1C2=O [SG3199] + O=C(c1cc(Cc2n[nH]c(=O)c3ccccc23)ccc1F)N1CCN(C(=O)C2CC2)CC1 [Olaparib] (first compound max 0.001 µM, 7x7, partner max 10 µM) when you can. 0.105

----------
system: MHH-PREB-1 (B-Cell Non-Hodgkin's Lymphoma); assay: Bliss excess, mean over the matrix (fraction); higher = more synergy
Each entry gets not met if its Bliss excess stays under -0.007, and met if its Bliss excess is -0.007 or above.

{"columns": ["compound", "label"],
 "data": [
  ["Cn1cnc2c(F)c(Nc3ccc(Br)cc3Cl)c(C(=O)NOCCO)cc21 [Selumetinib] + C[C@@H]1COCCN1C2=NC(=NC(=C2)C3(CC3)[S@](=N)(=O)C)C4=C5C=CNC5=NC=C4 [AZD6738] (first compound max 10 µM, 7x7, partner max 10 µM)", "not met"],
  ["NC1(C(=O)N[C@@H](CCO)c2ccc(Cl)cc2)CCN(c2ncnc3[nH]ccc23)CC1 [Capivasertib] + CC(=O)c1c(C)c2cnc(Nc3ccc(N4CCNCC4)cn3)nc2n(C2CCCC2)c1=O [Palbociclib] (first compound max 10 µM, 7x7, partner max 10 µM)", "not met"],
  ["COc1nnc2ccc(N3CCC(c4ccc(OCCN5CCN(C)C(=O)[C@H]5C)cc4)CC3)nn12 [AZD5153] + C[C@@H]1COCCN1C2=NC(=NC(=C2)C3(CC3)[S@](=N)(=O)C)C4=C5C=CNC5=NC=C4 [AZD6738] (first compound max 1 µM, 7x7, partner max 10 µM)", "met"],
  ["NC1(C(=O)N[C@@H](CCO)c2ccc(Cl)cc2)CCN(c2ncnc3[nH]ccc23)CC1 [Capivasertib] + Cn1cnc2c(F)c(Nc3ccc(Br)cc3Cl)c(C(=O)NOCCO)cc21 [Selumetinib] (first compound max 10 µM, 7x7, partner max 10 µM)", "met"]
]}

hey, is Bliss excess for this one >= -0.007? CN(CCO)CC[C@H](CSc1ccccc1)Nc1ccc(S(=O)(=O)NC(=O)c2ccc(N3CCC([C@@H](O)c4ccccc4-c4ccc(Cl)cc4)CC3)cc2)cc1S(=O)(=O)C(F)(F)F [AZD4320] + CN(C)CCCOc1ccc(-c2ccc3ncc4c(c3c2)n(C2CCOCC2)c(=O)n4C)cn1 [AZD0156] (first compound max 1 µM, 7x7, partner max 1 µM) met

hey, is Bliss excess for this one >= -0.007? CC1(C)CCC(CN2CCN(c3ccc(C(=O)NS(=O)(=O)c4ccc(NCC5CCOCC5)c([N+](=O)[O-])c4)c(Oc4cnc5[nH]ccc5c4)c3)CC2)=C(c2ccc(Cl)cc2)C1 [Venetoclax] + CN(C)CCCOc1ccc(-c2ccc3ncc4c(c3c2)n(C2CCOCC2)c(=O)n4C)cn1 [AZD0156] (first compound max 1 µM, 7x7, partner max 1 µM) met

hey, is Bliss excess for this one >= -0.007? CC1(C)CCC(CN2CCN(c3ccc(C(=O)NS(=O)(=O)c4ccc(NCC5CCOCC5)c([N+](=O)[O-])c4)c(Oc4cnc5[nH]ccc5c4)c3)CC2)=C(c2ccc(Cl)cc2)C1 [Venetoclax] + CCN(CCO)CCCOc1ccc2c(Nc3cc(CC(=O)Nc4cccc(F)c4)[nH]n3)ncnc2c1 [AZD2811] (first compound max 1 µM, 7x7, partner max 1 µM) met

----------
Reported combination Emax values are given for each entry in this list.
system: 8305C (Thyroid Gland Carcinoma); assay: combination Emax (second highest fraction inhibited in the dose matrix, 72 h); higher = more inhibition; extreme values may be limits of the assay
Answer using only a numeral; do not append any unit.

Previously resolved entries follow.
{"columns": ["compound", "combination Emax"],
 "data": [
  ["CN(CCO)CC[C@H](CSc1ccccc1)Nc1ccc(S(=O)(=O)NC(=O)c2ccc(N3CCC([C@@H](O)c4ccccc4-c4ccc(Cl)cc4)CC3)cc2)cc1S(=O)(=O)C(F)(F)F [AZD4320] + C1CN(CCC1(C(=O)N[C@@H](CCO)C2=CC=C(C=C2)Cl)N)C3=NC=NC4=C3C=CN4 [Capivasertib] (first compound max 1 µM, 7x7, partner max 3 µM)", 0.506],
  ["CN(C)CCCOc1ccc(-c2ccc3ncc4c(c3c2)n(C2CCOCC2)c(=O)n4C)cn1 [AZD0156] + C[C@@H]1COCCN1C2=NC(=NC(=C2)C3(CC3)[S@](=N)(=O)C)C4=C5C=CNC5=NC=C4 [AZD6738] (first compound max 1 µM, 7x7, partner max 10 µM)", 0.506]
]}

Dear colleague, please send me the reported combination Emax for CS(=O)(=O)CCNCc1ccc(-c2ccc3ncnc(Nc4ccc(OCc5cccc(F)c5)c(Cl)c4)c3c2)o1 [Lapatinib] + NC1(c2ccc(-c3nc4ccn5c(=O)[nH]nc5c4cc3-c3ccccc3)cc2)CCC1 [MK-2206] (first compound max 10 µM, 7x7, partner max 10 µM) when you can. 0.929

----------
test system: LoVo (Colorectal Carcinoma); test: Bliss excess, mean over the matrix (fraction); higher = more synergy
Reported Bliss excess values are given for each entry in this list.
Answer using only a numeral; do not append any unit.

{"columns": ["compound", "assayed-target", "measured-attribute", "experimental-result"],
 "data": [
  ["CN(CCO)CC[C@H](CSc1ccccc1)Nc1ccc(S(=O)(=O)NC(=O)c2ccc(N3CCC([C@@H](O)c4ccccc4-c4ccc(Cl)cc4)CC3)cc2)cc1S(=O)(=O)C(F)(F)F [AZD4320] + C1CN(CCC1(C(=O)N[C@@H](CCO)C2=CC=C(C=C2)Cl)N)C3=NC=NC4=C3C=CN4 [Capivasertib] (first compound max 1 µM, 7x7, partner max 3 µM)", "LoVo (Colorectal Carcinoma)", "Bliss excess", -0.071]
]}

Below: the item to evaluate.
Dear colleague, please send me the reported Bliss excess for COc1nnc2ccc(N3CCC(c4ccc(OCCN5CCN(C)C(=O)[C@H]5C)cc4)CC3)nn12 [AZD5153] + C[C@@H]1COCCN1C2=NC(=NC(=C2)C3(CC3)[S@](=N)(=O)C)C4=C5C=CNC5=NC=C4 [AZD6738] (first compound max 1 µM, 7x7, partner max 10 µM) when you can. 0.0603

----------
Reported combination Emax values are given for each entry in this list.
tested on: TE-4 (Esophageal Squamous Cell Carcinoma); test: combination Emax (second highest fraction inhibited in the dose matrix, 72 h); higher = more inhibition; extreme values may be limits of the assay
Answer using only a numeral; do not append any unit.

Previously resolved entries follow.
{"columns": ["compound", "assayed-target", "combination Emax"],
 "data": [
  ["Cc1c2c(nn1C)CSCc1cc(n(C)n1)CSc1cc(c3ccccc3c1)OCCCc1c(C(=O)O)n(C)c3c-2c(Cl)ccc13 [AZD5991] + Cc1cc2ncnn2cc1Nc1ncc2c(n1)n(C1CCOCC1)c(=O)n2C [AZD7648] (first compound max 1 µM, 7x7, partner max 10 µM)", "TE-4 (Esophageal Squamous Cell Carcinoma)", 0.517],
  ["Cc1cc2ncnn2cc1Nc1ncc2c(n1)n(C1CCOCC1)c(=O)n2C [AZD7648] + O=C(c1cc(Cc2n[nH]c(=O)c3ccccc23)ccc1F)N1CCN(C(=O)C2CC2)CC1 [Olaparib] (first compound max 10 µM, 7x7, partner max 10 µM)", "TE-4 (Esophageal Squamous Cell Carcinoma)", 0.167],
  ["NC1(C(=O)N[C@@H](CCO)c2ccc(Cl)cc2)CCN(c2ncnc3[nH]ccc23)CC1 [Capivasertib] + CC(C)n1c(=O)n(C)c2cnc3cc(F)c(-c4ccc(OCCCN5CCCCC5)nc4)cc3c21 [AZD1390] (first compound max 10 µM, 7x7, partner max 0.3 µM)", "TE-4 (Esophageal Squamous Cell Carcinoma)", 0.616]
]}

Below: the item to evaluate.
Dear colleague, please send me the reported combination Emax for CN(C)CCCOc1ccc(-c2ccc3ncc4c(c3c2)n(C2CCOCC2)c(=O)n4C)cn1 [AZD0156] + CCN(CCO)CCCOc1ccc2c(Nc3cc(CC(=O)Nc4cccc(F)c4)[nH]n3)ncnc2c1 [AZD2811] (first compound max 1 µM, 7x7, partner max 1 µM) when you can. 0.071
